- tgt: human CD33 H300A (human, UniProt P20138 18-364)
- Sequence (P20138 18-364 H300A limits assumed): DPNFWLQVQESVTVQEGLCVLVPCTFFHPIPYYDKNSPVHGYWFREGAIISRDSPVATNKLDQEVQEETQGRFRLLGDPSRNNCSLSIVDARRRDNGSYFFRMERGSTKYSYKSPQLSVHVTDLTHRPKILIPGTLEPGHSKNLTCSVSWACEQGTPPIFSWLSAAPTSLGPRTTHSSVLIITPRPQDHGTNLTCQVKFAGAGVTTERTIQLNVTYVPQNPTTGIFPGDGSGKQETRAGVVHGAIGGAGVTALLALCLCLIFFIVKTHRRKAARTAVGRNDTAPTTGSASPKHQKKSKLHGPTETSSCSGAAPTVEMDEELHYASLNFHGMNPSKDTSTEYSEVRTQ
- assay-summary: alanine scan, flow cytometry, HEK293-T;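 further: antibody binding to each alanine-substituted CD33 mutant expressed transiently in HEK293-T, read as fluorescence minus background, mean of duplicates, relative to wild-type CD33 set as 100%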
Field: Mean % WT Binding. Provide a value for each of the binders that follow.
One number for each entry, in % WT binding.

Examples with answers:
- binder: "Refmab #1 (antibody, V domains shown, The alanine scan used IgG or Fab; also called hP67.6) VH: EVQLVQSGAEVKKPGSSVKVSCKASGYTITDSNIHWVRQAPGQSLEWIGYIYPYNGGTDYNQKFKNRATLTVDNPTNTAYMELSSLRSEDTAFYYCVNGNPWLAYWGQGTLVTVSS VL: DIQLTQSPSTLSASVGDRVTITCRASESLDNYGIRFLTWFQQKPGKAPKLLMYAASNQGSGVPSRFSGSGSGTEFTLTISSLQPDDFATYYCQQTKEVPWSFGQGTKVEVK"
  Mean % WT Binding / % WT binding: 76.5
- binder: "Refmab #2 (antibody, V domains shown, The alanine scan used IgG or Fab) VH: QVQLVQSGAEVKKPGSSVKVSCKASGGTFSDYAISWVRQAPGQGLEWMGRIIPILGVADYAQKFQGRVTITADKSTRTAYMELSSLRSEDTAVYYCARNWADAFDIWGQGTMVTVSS VL: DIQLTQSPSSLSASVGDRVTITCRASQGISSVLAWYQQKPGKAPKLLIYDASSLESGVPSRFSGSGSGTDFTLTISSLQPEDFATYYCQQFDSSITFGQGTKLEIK"
  Mean % WT Binding / % WT binding: 98.9
- binder: "Refmab #3 (antibody, V domains shown, The alanine scan used IgG or Fab) VH: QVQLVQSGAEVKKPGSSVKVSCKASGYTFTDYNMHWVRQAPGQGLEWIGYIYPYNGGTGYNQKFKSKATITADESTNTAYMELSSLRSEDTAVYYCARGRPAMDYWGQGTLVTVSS VL: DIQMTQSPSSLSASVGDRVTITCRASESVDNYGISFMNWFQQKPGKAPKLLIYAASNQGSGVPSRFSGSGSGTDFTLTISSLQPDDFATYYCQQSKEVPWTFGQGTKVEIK"
  Mean % WT Binding / % WT binding: 68.3

Shifting focus to the binder that follows.
INPUT: In one line, give reported Mean % WT Binding of the entry Refmab #4 (antibody, V domains shown, The alanine scan used IgG or Fab) VH: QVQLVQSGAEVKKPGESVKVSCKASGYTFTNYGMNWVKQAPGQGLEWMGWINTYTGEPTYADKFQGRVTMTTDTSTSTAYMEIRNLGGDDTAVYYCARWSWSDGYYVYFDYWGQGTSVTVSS VL: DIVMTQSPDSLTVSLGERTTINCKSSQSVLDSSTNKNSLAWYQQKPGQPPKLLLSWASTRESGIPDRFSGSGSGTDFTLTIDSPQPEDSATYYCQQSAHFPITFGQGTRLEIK .
OUTPUT: 95.2
